- Read-out: Human Leukocyte Antigen - DR isotype (HLADR), HLA-DRA (gene 3122)
- assayProtocol: BSK_BE3C_HLADR: BioMAP Diversity Plus: BE3C Assay for Human Leukocyte Antigen - DR isotype (HLADR) Biomarker Activity (AID 2283032)
- conditionDescription: primary human bronchial epithelial cells; actives raise or lower the signal
Active and inactive are the calls of the source. Rule for the calls: active = hit-call score of the fitted dose curve at least 0.9, where 1 is the maximum; inactive = score below 0.9.
Return exactly one item of active, inactive

- smilesRepresentation: "Nc1ccc(-c2ccc(N)cc2)cc1"
  classification: "inactive"

Now turn to the next molecule.
*Q* Status in this test for CCCCCCCCCC[N+](C)(C)CCCCCCCCCC ?
*A* active

====

- assayProtocol: ATG_TA_CIS: Attagene CIS-FACTORIAL HepG2 Assay for human TA Basal Promoter (AID 2282964)
- conditionDescription: HepG2 Attagene CIS-factorial TA basal promoter reporter; actives raise or lower the signal
- Procedure: ATG_CIS is a cell-based, multiplexed-readout assay that uses HepG2, a human liver cell line, with measurements taken at 24 hours after chemical dosing in a 24-well plate.ATG_TA_CIS is one of 52 assay component(s) measured or calculated from the ATG_CIS assay. […] This assay endpoint, ATG_TA_CIS, was analyzed with bidirectional fitting relative to DMSO as the negative control and baseline of activity. […]
The source made the active and inactive calls. The calls were made as follows: active = hit-call score of the fitted dose curve at least 0.9, where 1 is the maximum; inactive = score below 0.9.
Would you mind answering with one of these outcomes? active, inactive

Worked examples, 5 compounds total:
- compound: "Oc1ccc(C(c2ccc(O)cc2)(C(F)(F)F)C(F)(F)F)cc1"
  classification: "inactive"
- compound: "Cc1cc2c3c(c1)C(c1ccccc1)=N[C@@H](NC(=O)c1ccncc1)C(=O)N3CC2"
  classification: "active"
- compound: "ClC1=C(Cl)[C@]2(Cl)[C@@H]3[C@@H]4C[C@@H]([C@H]5O[C@@H]45)[C@@H]3[C@@]1(Cl)C2(Cl)Cl"
  classification: "inactive"
- compound: "ClC(Cl)=C(c1ccc(Cl)cc1)c1ccc(Cl)cc1"
  classification: "inactive"
- compound: "NS(=O)(=O)C(F)(F)C(F)(F)C(F)(F)C(F)(F)C(F)(F)C(F)(F)C(F)(F)C(F)(F)F"
  classification: "inactive"

*Q* Please indicate how the test categorized CCOP(=S)(OCC)SCSC(C)(C)C .
*A* inactive

*Q* Tell me the assay call for O=C(NC(=O)c1cc(F)c(F)cc1Cl)Nc1cc(F)ccc1N1CCC(C(=O)O)CC1 please.
*A* inactive

*Q* Just curious, what result did C=CC(N)=O get here?
*A* inactive

*Q* # fetch the recorded call for Cc1cccc([N+](=O)[O-])c1 here
*A* inactive

*Q* Field: outcome | Entry: N#Cc1ccc(N(CC(N)=O)CC(F)(F)F)cc1C(F)(F)F
*A* inactive

*Q* Field: outcome | Entry: CCC(C)c1cc([N+](=O)[O-])cc([N+](=O)[O-])c1O (centres undefined)
*A* inactive

*Q* Record lookup: outcome of this test for Cc1cc(-c2ccc(N)c(C)c2)ccc1N ?
*A* inactive

*Q* For CCCN(CCC)N=O , which call appears in the assay record?
*A* inactive

*Q* How was CC(C)(O)C(=O)Nc1ccc([N+](=O)[O-])c(C(F)(F)F)c1 classified in this test?
*A* inactive

*Q* Entry CC(C)C(=O)OCC(C)(C)C(OC(=O)C(C)C)C(C)C (centres undefined) : call = ?
*A* inactive

*Q* Status in this test for CC1=C2C[C@H]3[C@@H](CC=C4C[C@@H](O)CC[C@@]43C)[C@@H]2CC[C@]12O[C@@H]1C[C@H](C)CN[C@H]1[C@H]2C ?
*A* active

*Q* State the result this test recorded for Clc1ccc(C(Cl)(Cl)Cl)cc1 .
*A* inactive

*Q* Could you check what this test reported for O=C(O)C(F)(F)C(F)(F)C(F)(F)C(F)(F)C(F)(F)C(F)(F)C(F)(F)C(F)(F)C(F)(F)F ?
*A* inactive

*Q* Write down the call the test reported for this compound. Item: c1ccc(-c2ccccc2)cc1
*A* inactive
